- System Tested: Tyrosine-protein kinase ABL (Homo sapiens, UniProt P00519+P42684)
- Protocol Description: Tested in vitro for inhibition of non-receptor tyrosine kinase v-Abl
- Type: protein assay
The label is true (1) for IC50 below 300 nM and false (0) for IC50 equal to or exceeding 300 nM.

Worked examples, 10 compounds total:
smiles_string=Nc1ncnc2c1c(-c1ccccc1)cn2-c1ccc(CNCCO)cc1 class="false (0)"
smiles_string=COc1cccc(-c2cn(-c3cccc(CO)c3)c3ncnc(N)c23)c1 class="true (1)"
smiles_string=Nc1ncnc2c1c(-c1ccccc1)cn2-c1ccc(CO)cc1 class="true (1)"
smiles_string=COc1cccc(-c2cn(-c3ccc(CC(=O)NCCO)cc3)c3ncnc(N)c23)c1 class="true (1)"
smiles_string=COc1cccc(-c2cn(-c3ccccc3)c3ncnc(N)c23)c1 class="true (1)"
smiles_string=Nc1ncnc2c1c(-c1cccc(Cl)c1)cn2-c1ccccc1 class="false (0)"
smiles_string=Nc1ncnc2c1c(-c1ccccc1)cn2-c1cccc(CO)c1 class="true (1)"
smiles_string=CCOC(=O)c1ccc(-c2cn(-c3ccccc3)c3ncnc(N)c23)cc1 class="false (0)"
smiles_string=COc1cccc(-c2cn(-c3ccc(CNCCO)cc3)c3ncnc(N)c23)c1 class="true (1)"
smiles_string=COc1ccc(-c2cn(-c3ccccc3)c3ncnc(N)c23)cc1 class="false (0)"

Lookup: is_below(IC50, 300 nM) for `Nc1ncnc2c1c(-c1ccccc1)cn2-c1ccccc1CO` ?
Found: false (0)

Lookup: is_below(IC50, 300 nM) for `Nc1ncnc2c1c(-c1ccccc1)cn2-c1ccccc1` ?
Found: true (1)

Lookup: is_below(IC50, 300 nM) for `CNc1ncnc2c1c(-c1ccccc1)cn2-c1ccccc1` ?
Found: false (0)

src = ChEMBL document CHEMBL1133080
